- experimental_target: human M1 receptor (hCHRM1) (Homo sapiens)
- Construct: expressed in transfected cells
- Sequence (P11229 1-460): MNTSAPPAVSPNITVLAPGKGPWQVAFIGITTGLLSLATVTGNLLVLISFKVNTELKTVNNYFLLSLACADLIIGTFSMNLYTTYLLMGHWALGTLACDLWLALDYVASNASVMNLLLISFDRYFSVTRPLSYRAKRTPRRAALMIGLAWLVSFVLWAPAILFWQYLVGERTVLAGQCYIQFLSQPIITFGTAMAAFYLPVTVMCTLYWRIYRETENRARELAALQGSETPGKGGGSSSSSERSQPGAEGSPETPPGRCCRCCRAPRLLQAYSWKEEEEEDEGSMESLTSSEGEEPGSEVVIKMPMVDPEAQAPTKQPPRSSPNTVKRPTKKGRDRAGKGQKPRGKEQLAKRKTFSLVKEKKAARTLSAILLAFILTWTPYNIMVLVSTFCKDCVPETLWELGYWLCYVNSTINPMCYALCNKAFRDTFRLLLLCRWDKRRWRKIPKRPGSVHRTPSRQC
- assay_info: Measurement of M1 receptor positive allosteric modulator (M1PAM) activity, calcium fluorescence in CHO-K1 cells
- Assay type: cell-based
- experimental_setup: 10 μM test compound with acetylcholine at EC20; 100% = acetylcholine 1 μM, 0% = DMSO
measure_name: activity (%) at 10 μM

CCC(F)(F)COc1ncnc2c1C(=O)N(Cc1ccc(-c3cnn(CC(F)(F)F)c3)cc1)C2 ... 88
CCn1cc(-c2ccc(CN3Cc4ccnc(OCC(F)(F)CC)c4C3=O)c(F)c2)cn1 ... 94
CCn1cc(-c2ccc(CN3Cc4ncnc(OCC(F)F)c4C3=O)c(F)c2)cn1 ... 99
CCn1cc(-c2ccc(CN3Cc4ccnc(OCC(F)(F)CC)c4C3=O)cc2)cn1 ... 99
Cn1cc(-c2ccc(CN3Cc4ccnc(OCC(F)(F)F)c4C3=O)c(F)c2)nn1 ... 102
Cc1nn(C)cc1-c1ccc(CN2Cc3ccnc(OCC(F)F)c3C2=O)cc1 ... 109

----------
- experimental_target: human M1 receptor (hCHRM1) (Homo sapiens, UniProt P11229)
- Sequence (P11229 1-460): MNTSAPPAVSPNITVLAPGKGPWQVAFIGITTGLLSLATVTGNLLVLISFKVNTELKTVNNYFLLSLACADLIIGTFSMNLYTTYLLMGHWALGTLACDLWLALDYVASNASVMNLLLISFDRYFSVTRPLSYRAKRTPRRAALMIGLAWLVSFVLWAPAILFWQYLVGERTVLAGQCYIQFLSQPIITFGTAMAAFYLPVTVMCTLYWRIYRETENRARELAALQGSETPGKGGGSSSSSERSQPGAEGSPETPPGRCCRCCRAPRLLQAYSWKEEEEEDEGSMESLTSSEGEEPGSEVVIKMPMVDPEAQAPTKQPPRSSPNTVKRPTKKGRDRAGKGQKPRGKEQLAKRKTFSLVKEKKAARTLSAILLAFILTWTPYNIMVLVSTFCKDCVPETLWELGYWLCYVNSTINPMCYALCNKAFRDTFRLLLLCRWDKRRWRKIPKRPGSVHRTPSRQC
- assay_info: Measurement of M1 receptor positive allosteric modulator (M1PAM) activity, calcium fluorescence in CHO-K1 cells;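 as to EC50: potency reported as IP value in nM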
- experimental_setup: inflection point in the concentration-dependent curve; acetylcholine at EC20 (final 0.6-0.8 nM); CHO-K1 cells expressing human M1; Fluo-4, FLIPRtetra; read-out: IP value
measure_name: EC50 (nM)

Cc1nn(C)cc1-c1ccc(CN2Cc3ccnc(OCC(F)F)c3C2=O)cc1 [Example 6] ... 70
CCn1cc(-c2ccc(CN3Cc4ncnc(OCC(F)(F)CC)c4C3=O)s2)cn1 [Example 30] ... 96
Cc1nn(C)cc1-c1ccc(CN2Cc3ccnc(OCC(F)(F)F)c3C2=O)c(F)c1 [Example 88] ... 74
CCC(F)(F)COc1nccc2c1C(=O)N(Cc1ccc(-c3ccn(C)n3)cc1F)C2 [Example 97] ... 77
CC(F)(F)COc1nccc2c1C(=O)N(Cc1ccc(-c3cnn(C4CC4)c3)cc1)C2 [Example 17] ... 95
